B1: HDV Ribozyme (parent)
chain: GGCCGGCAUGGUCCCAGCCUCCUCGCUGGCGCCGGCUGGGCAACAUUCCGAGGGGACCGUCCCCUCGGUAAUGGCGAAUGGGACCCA

Variants of: B1
protocol.description: self-cleavage, relative activity (ratio to wild type); higher = more cleavage; co-transcriptional
Assign yes (1) to entries whose self-cleavage meets or exceeds 0.1; assign no (0) to the rest.

{"mutation.annotation": "C3G C21A", "assigned.category": "no (0)"}
{"mutation.annotation": "C21A C30A", "assigned.category": "no (0)"}
{"mutation.annotation": "C26A A71U", "assigned.category": "yes (1)"}
{"mutation.annotation": "G38A U72A", "assigned.category": "yes (1)"}
{"mutation.annotation": "C24G A87G", "assigned.category": "yes (1)"}

Hi, just wondering whether G5U G68U shows self-cleavage of 0.1 or higher.
yes (1)

Is self-cleavage for G31U A51G at or above 0.1?
yes (1)

Please indicate if the recorded self-cleavage for C44A U46C meets or exceeds 0.1.
yes (1)

Item C22A C85A with self-cleavage of 0.1 or above?
yes (1)

Test whether the variant G50A A70U records self-cleavage of 0.1 or higher.
yes (1)
